The measurements presented in this section are drawn from ChEMBL document CHEMBL1629450.

molecular target: DNA topoisomerase 1 (Homo sapiens); experiment: Inhibition of human topoisomerase 1 assessed as induction of DNA damage using 161 base-pair fragment form pBluescript SK(-) phagemid DNA substrate by DNA cleavage assay
Activity calls are given as the source filed them. The calls are words filed in the database; no cut-off is given here.
Log the outcome using a class from class 1 = active, class 0 = inactive

These solved cases illustrate the format of a correct answer.
1. COc1cc2c(=O)n(CCCO)c3c4ccccc4[nH]c(=O)c3c2cc1OC :: class 0
2. COc1cc2c(=O)n(C)c3c4ccccc4nc(Cl)c3c2cc1OC :: class 1
3. C=CCn1c(=O)c2cc(OC)c(OC)cc2c2c(=O)[nH]c3ccccc3c21 :: class 0
4. COc1cc2c(Cl)nc3c4ccccc4nc(Cl)c3c2cc1OC :: class 0
5. COc1cc2c(=O)n(CCCN3CCOCC3)c3c4ccccc4nc(Cl)c3c2cc1OC :: class 1
6. COc1cc2c(=O)n(C)c3c4ccccc4[nH]c(=O)c3c2cc1OC :: class 0

Attention now turns to another entry.
Q. # fetch the recorded call for COc1cc2c(OC)nc3c4ccccc4nc(OC)c3c2cc1OC here
A. class 0
